protocol: Mixed type inhibition of bacterial ImiS using varying levels of imipenem as substrate assessed as hydrolysis by Line weaver Burk plot analysis
Parameters: species or system Bacteria
readout.kind: Ki (µM)
Answers are plain numbers, in µM.

1. COC(=O)c1ccc(C(=O)Nc2cccc(S(N)(=O)=O)c2)cc1: 0.55

Data point: COC(=O)c1ccc(C(=O)Nc2ccc(S(N)(=O)=O)cc2)cc1 ; Ki = 8

###

Tested on: Bacteria
protocol: Inhibition of beta-lactamase ImiS (unknown origin) expressed in Escherichia coli BL21 (DE3) assessed as potentiation of meropenem induced antibacterial activity by measuring meropenem MIC at 64 ug/ml incubated for 16 hrs by CLSI broth microdilution method (reference value: 64 ug/ml)
protocol.conditions: dose 64.0 µg/ml
Could you please report measured MIC for the items listed next?
Numbers only, in µg/mL.

1) NS(=O)(=O)c1ccc(NC(=O)c2ccc(Cl)cc2)cc1: 32
2) NS(=O)(=O)c1cccc(NC(=O)c2cccc([N+](=O)[O-])c2)c1: 16
3) NS(=O)(=O)c1cccc(NC(=O)CCc2ccccc2)c1: 16
4) COC(=O)c1ccc(C(=O)Nc2ccc(S(N)(=O)=O)cc2)cc1: 32
5) NS(=O)(=O)c1cccc(NC(=O)c2cccc(Br)c2)c1: 16

Give one value of MIC per listed compound.
1. NS(=O)(=O)c1ccc(NC(=O)c2ccc(C(F)(F)F)cc2)cc1
2. NS(=O)(=O)c1ccc(NC(=O)CC(c2ccccc2)c2ccccc2)cc1
3. NS(=O)(=O)c1ccc(NC(=O)c2ccc(O)cc2)cc1
4. NS(=O)(=O)c1cccc(NC(=O)c2ccc(C(F)(F)F)cc2)c1
5. CC(C)(C)c1ccc(C(=O)Nc2ccc(S(N)(=O)=O)cc2)cc1
6. NS(=O)(=O)c1ccc(NC(=O)c2cccc(Br)c2)cc1

Completion:
1: 32; 2: 32; 3: 32; 4: 16; 5: 32; 6: 32
